Tested on: Rattus norvegicus
test.protocol: Antihypertensive activity rating in conscious SHR after 1 hr post dose at 10 mg/kg (po)
Format: functional
measure: Activity
Number only, no unit.

Please tell me: Activity of COc1cc2nc(N3CCN(C(=O)/C=C/c4ccc(OC)c(OC)c4OC)CC3)nc(N)c2cc1OC , system Rattus norvegicus?
0

# returns recorded Activity (system: Rattus norvegicus) for COc1ccc(/C=C/C(=O)N2CCN(c3nc(N)c4cc(OC)c(OC)cc4n3)CC2)cc1
1

Query the reported Activity for Rattus norvegicus; item: COc1cc2nc(N3CCN(C(=O)/C=C/c4cccc(C)c4)CC3)nc(N)c2cc1OC
0

# get_value(readout= Activity, system= Rattus norvegicus) for COc1cc2nc(N3CCN(C(=O)/C=C/c4ccc(Br)cc4)CC3)nc(N)c2cc1OC.Cl
0

Please provide the recorded Activity for COc1cc2nc(N3CCN(C(=O)/C=C/c4ccc(OC(C)C)cc4)CC3)nc(N)c2cc1OC.Cl , tested on Rattus norvegicus.
0

Hello, the source for this data is ChEMBL document CHEMBL1122489, in case you need it.
